test details: Phase 1 multiple ascending dose (MAD) study: pharmacokinetics
Format: in vivo, human
study conditions: human, plasma, oral, 5 mg, Cohort 1, 5 mg BID, Day 15; read-out: Geometric Mean Cmax
assay metric: Cmax
# include the unit after the value

Input line: Can you look up the measured Cmax of `C=CC(=O)N1C[C@H](Nc2ncnc3[nH]cc([C@H]4CC4(F)F)c23)CC[C@@H]1C` for me?
Output line: 12.5 ng/mL

* * *

test details: Phase 1 single ascending dose (SAD) study: pharmacokinetics, food effect, formulation bridging
Type: in vivo, human
study conditions: both sexes, human, in vivo, po, 25 mg, single oral dose 25 mg, capsule, fasted; read-out: Vz/F
assay metric: Vd/F
# include the unit after the value

Input line: Can you look up the measured Vd/F of C=CC(=O)N1C[C@H](Nc2ncnc3[nH]cc([C@H]4CC4(F)F)c23)CC[C@@H]1C [Compound I] for me?
Output line: 366 L

* * *

test details: Phase 1 multiple ascending dose (MAD) study: pharmacokinetics
Format: in vivo, human
study conditions: human, plasma, oral, 30 mg, Cohort 3a, 30 mg QD, Day 1; read-out: Geometric Mean AUC_0-12
assay metric: AUC(0-t) (ng·h/mL)
# output: bare number, implied unit ng·h/mL

Input line: Can you look up the measured AUC(0-t) of C=CC(=O)N1C[C@H](Nc2ncnc3[nH]cc([C@H]4CC4(F)F)c23)CC[C@@H]1C [Compound I] for me?
Output line: 308

* * *

test details: Phase 1 multiple ascending dose (MAD) study: pharmacokinetics
Format: in vivo, human
study conditions: plasma, oral; Human 15 mg; read-out: AUC0-τ
assay metric: AUC (ng·h/mL)
# output: bare number, implied unit ng·h/mL

Input line: Can you look up the measured AUC of `C=CC(=O)N1C[C@H](Nc2ncnc3[nH]cc([C@H]4CC4(F)F)c23)CC[C@@H]1C` for me?
Output line: 110

* * *

test details: Phase 1 multiple ascending dose (MAD) study: pharmacokinetics
Format: in vivo, human
study conditions: human, plasma, oral, 25 mg, Cohort 4, 25 mg BID, Day 15; read-out: Geometric Mean AUC_0-12
assay metric: AUC(0-t) (ng·h/mL)
# output: bare number, implied unit ng·h/mL

Input line: Can you look up the measured AUC(0-t) of C=CC(=O)N1C[C@H](Nc2ncnc3[nH]cc([C@H]4CC4(F)F)c23)CC[C@@H]1C [Compound I] for me?
Output line: 240

* * *

test details: 13 week toxicology and toxicokinetic study in cynomolgus monkeys
Assay type: in vivo, cynomolgus monkey
study conditions: cynomolgus monkey, in vivo, 12 mg/kg, monkey 12 mpk, Day 91; read-out: Cmax
assay metric: Cmax (ng/mL)
# output: bare number, implied unit ng/mL

Input line: Can you look up the measured Cmax of C=CC(=O)N1C[C@H](Nc2ncnc3[nH]cc([C@H]4CC4(F)F)c23)CC[C@@H]1C [Compound I] for me?
Output line: 1960

* * *

test details: 13 week toxicology and toxicokinetic study in cynomolgus monkeys
Assay type: in vivo, cynomolgus monkey
study conditions: cynomolgus monkey, in vivo, 12 mg/kg, monkey 12 mpk, Day 91; read-out: AUC0-24
From the text: Purpose: Evaluation of toxicity and toxicokinetic (TK) for Compound I, following daily dosing for 13 weeks.
assay metric: AUC(0-t) (ng·h/mL)
# output: bare number, implied unit ng·h/mL

Input line: Can you look up the measured AUC(0-t) of `C=CC(=O)N1C[C@H](Nc2ncnc3[nH]cc([C@H]4CC4(F)F)c23)CC[C@@H]1C` for me?
Output line: 6430

* * *

test details: 13 week toxicology and toxicokinetic study in cynomolgus monkeys
Assay type: in vivo, cynomolgus monkey
study conditions: cynomolgus monkey, in vivo, 12 mg/kg, monkey 12 mpk, Day 28; read-out: Cmax
assay metric: Cmax (ng/mL)
# output: bare number, implied unit ng/mL

Input line: Can you look up the measured Cmax of `C=CC(=O)N1C[C@H](Nc2ncnc3[nH]cc([C@H]4CC4(F)F)c23)CC[C@@H]1C` for me?
Output line: 2160

* * *

test details: Phase 1 single ascending dose (SAD) study: pharmacokinetics, food effect, formulation bridging
Type: in vivo, human
study conditions: both sexes, human, in vivo, po, 3 mg, single oral dose 3 mg, capsule, fasted
assay metric: Cmax (ng/mL)
# output: bare number, implied unit ng/mL

Input line: Can you look up the measured Cmax of `C=CC(=O)N1C[C@H](Nc2ncnc3[nH]cc([C@H]4CC4(F)F)c23)CC[C@@H]1C` for me?
Output line: 5.9

* * *

test details: Phase 1 multiple ascending dose (MAD) study: pharmacokinetics
Type: in vivo, human
study conditions: human, plasma, oral, 40 mg, Cohort 5, 40 mg BID, Day 7; read-out: Geometric Mean AUCINF_obs
assay metric: AUC(0-inf) (ng·h/mL)
# output: bare number, implied unit ng·h/mL

Input line: Can you look up the measured AUC(0-inf) of C=CC(=O)N1C[C@H](Nc2ncnc3[nH]cc([C@H]4CC4(F)F)c23)CC[C@@H]1C [Compound I] for me?
Output line: 487

* * *

test details: Phase 1 single ascending dose (SAD) study: pharmacokinetics, food effect, formulation bridging
Assay type: in vivo, human
study conditions: both sexes, human, in vivo, po, 25 mg, single oral dose 25 mg, capsule, fasted
assay metric: AUC(0-inf) (ng·h/mL)
# output: bare number, implied unit ng·h/mL

Input line: Can you look up the measured AUC(0-inf) of `C=CC(=O)N1C[C@H](Nc2ncnc3[nH]cc([C@H]4CC4(F)F)c23)CC[C@@H]1C` for me?
Output line: 154

* * *

test details: Phase 1 multiple ascending dose (MAD) study: pharmacokinetics
Format: in vivo, human
study conditions: human, plasma, oral, 5 mg, Cohort 1, 5 mg BID, Day 7; read-out: Geometric Mean Tmax
assay metric: Tmax (min)
# output: bare number, implied unit min

Input line: Can you look up the measured Tmax of `C=CC(=O)N1C[C@H](Nc2ncnc3[nH]cc([C@H]4CC4(F)F)c23)CC[C@@H]1C` for me?
Output line: 46.2

* * *

test details: Phase 1 single ascending dose (SAD) study: pharmacokinetics, food effect, formulation bridging
Assay type: in vivo, human
study conditions: both sexes, human, in vivo, po, 15 mg, single oral dose 15 mg, capsule, fed (high-fat, high-calorie breakfast)
assay metric: AUC(0-inf) (ng·h/mL)
# output: bare number, implied unit ng·h/mL

Input line: Can you look up the measured AUC(0-inf) of `C=CC(=O)N1C[C@H](Nc2ncnc3[nH]cc([C@H]4CC4(F)F)c23)CC[C@@H]1C` for me?
Output line: 93.9

* * *

test details: Phase 1 multiple ascending dose (MAD) study: pharmacokinetics
Assay type: in vivo, human
study conditions: human, plasma, oral, 15 mg, Cohort 2, 15 mg BID, Day 1; read-out: Geometric Mean Cmax
assay metric: Cmax (ng/mL)
# output: bare number, implied unit ng/mL

Input line: Can you look up the measured Cmax of `C=CC(=O)N1C[C@H](Nc2ncnc3[nH]cc([C@H]4CC4(F)F)c23)CC[C@@H]1C` for me?
Output line: 28.8

* * *

test details: Phase 1 single ascending dose (SAD) study: pharmacokinetics, food effect, formulation bridging
Assay type: in vivo, human
study conditions: both sexes, human, in vivo, po, 3 mg, single oral dose 3 mg, capsule, fasted; read-out: T1/2 (converted)
Experimental: Type of Study—This was an FIH, randomized, observer-blind, placebo-controlled study designed to evaluate the safety, tolerability, PK, and PD of Compound I in healthy subjects. The study consisted of: single ascending dose (SAD) cohorts (1-80 mg/day) plus formulation bridging and food effect (FE) cohorts. Approximately 64 male and female subjects were enrolled into 8 planned cohorts in the SAD study. […]
assay metric: half-life (h)
# output: bare number, implied unit h

Input line: Can you look up the measured half-life of C=CC(=O)N1C[C@H](Nc2ncnc3[nH]cc([C@H]4CC4(F)F)c23)CC[C@@H]1C [Compound I] for me?
Output line: 1.53

* * *

test details: Phase 1 single ascending dose (SAD) study: pharmacokinetics, food effect, formulation bridging
Format: in vivo, human
study conditions: both sexes, human, in vivo, po, 50 mg, single oral dose 50 mg, capsule, fasted
Experimental: Type of Study—This was an FIH, randomized, observer-blind, placebo-controlled study designed to evaluate the safety, tolerability, PK, and PD of Compound I in healthy subjects. The study consisted of: single ascending dose (SAD) cohorts (1-80 mg/day) plus formulation bridging and food effect (FE) cohorts. Approximately 64 male and female subjects were enrolled into 8 planned cohorts in the SAD study. […]
assay metric: Cmax (ng/mL)
# output: bare number, implied unit ng/mL

Input line: Can you look up the measured Cmax of C=CC(=O)N1C[C@H](Nc2ncnc3[nH]cc([C@H]4CC4(F)F)c23)CC[C@@H]1C [Compound I] for me?
Output line: 143

* * *

test details: Phase 1 single ascending dose (SAD) study: pharmacokinetics, food effect, formulation bridging
Assay type: in vivo, human
study conditions: both sexes, human, in vivo, po, 25 mg, single oral dose 25 mg, tablet
assay metric: Cmax (ng/mL)
# output: bare number, implied unit ng/mL

Input line: Can you look up the measured Cmax of `C=CC(=O)N1C[C@H](Nc2ncnc3[nH]cc([C@H]4CC4(F)F)c23)CC[C@@H]1C` for me?
Output line: 63.6
